# Test: Steroid Solubility Test
# Assay type: physicochemical
# Experimental conditions: 1,3-butanediol, organic solvent or mixture
Reported property: solubility (µg/mL)
Answer format: numeric, µg/mL implied, no suffix.

Check the records and state solubility for CCOC(=O)O[C@]1(C(=O)OCCl)[C@H](C)C[C@H]2[C@@H]3CCC4=CC(=O)C=C[C@]4(C)[C@@]3(F)[C@@H](O)C[C@@]21C [Steroid B]
50

---

# Test: Steroid Solubility Test
# Type: physicochemical
# Experimental conditions: 1,3-dimethyl-2-imidazolidinone, organic solvent or mixture
Reported property: solubility (mg/mL)
API: value field is a number in mg/mL; no unit string.

Tell me solubility reported for CCOC(=O)O[C@]1(C(=O)OCCl)[C@H](C)C[C@H]2[C@@H]3CCC4=CC(=O)C=C[C@]4(C)[C@@]3(F)[C@@H](O)C[C@@]21C [Steroid B]
52.1

---

# Test: Steroid Solubility Test
# Assay type: physicochemical
# Experimental conditions: organic solvent or mixture; solvent 1,3-Dimethyl-2-imidazolidinone; 20°C; read-out: maximum weight that could completely dissolve in 1 ml of solvent
Reported property: solubility (mg/mL)
# value in mg/mL; strip the unit string

Identify measured solubility associated with CCOC(=O)O[C@]1(C(=O)OCCl)CC[C@H]2[C@@H]3CCC4=CC(=O)C=C[C@]4(C)[C@H]3[C@@H](O)C[C@@]21C
357

---

# Test: Steroid Solubility Test
# Assay type: physicochemical
# Experimental conditions: polyethylene glycol 400, organic solvent or mixture
# Description: This test was conducted to determine the maximum weight of Steroids A and B that could completely dissolve in 1 ml of various solvents at a temperature of 20°C.
Reported property: solubility (µg/mL)
Give just the number in µg/mL; leave the unit off.

Annotate the compound CCOC(=O)O[C@]1(C(=O)OCCl)[C@H](C)C[C@H]2[C@@H]3CCC4=CC(=O)C=C[C@]4(C)[C@@]3(F)[C@@H](O)C[C@@]21C [Steroid B] with its measured solubility.
450

---

# Test: Steroid Solubility Test
# Assay type: physicochemical
# Experimental conditions: organic solvent or mixture; solvent 1,3-Butanediol; 20°C; read-out: maximum weight that could completely dissolve in 1 ml of solvent
Reported property: solubility (µg/mL)
Field: numeric (µg/mL). Do not append units.

# return recorded solubility for input CCOC(=O)O[C@]1(C(=O)OCCl)CC[C@H]2[C@@H]3CCC4=CC(=O)C=C[C@]4(C)[C@H]3[C@@H](O)C[C@@]21C [Steroid A]
1950

---

# Test: Steroid Solubility Test
# Type: physicochemical
# Experimental conditions: organic solvent or mixture; solvent Polyethylene glycol 400; 20°C; read-out: maximum weight that could completely dissolve in 1 ml of solvent
Reported property: solubility

Output solubility of CCOC(=O)O[C@]1(C(=O)OCCl)CC[C@H]2[C@@H]3CCC4=CC(=O)C=C[C@]4(C)[C@H]3[C@@H](O)C[C@@]21C [Steroid A]
13.3 mg/mL

---

# Test: Steroid Solubility Test
# Format: physicochemical
# Experimental conditions: benzyl alcohol, organic solvent or mixture
Reported property: solubility (µg/mL)
Report the value in µg/mL with no unit label.

Indicate its recorded solubility; the compound in question is CCOC(=O)O[C@]1(C(=O)OCCl)[C@H](C)C[C@H]2[C@@H]3CCC4=CC(=O)C=C[C@]4(C)[C@@]3(F)[C@@H](O)C[C@@]21C [Steroid B]
920
